# Test system: LXRb:RXRa (NR concentration 270 nM, RXRa partner concentration 90 nM)
# assayProcedure: PBM binding z-score (relative to random genomic background probes); higher = stronger binding; sequences stand for … in GC…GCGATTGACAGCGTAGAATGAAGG
Quick list: PBM binding z-score per entry.

Read off the recorded PBM binding z-score for "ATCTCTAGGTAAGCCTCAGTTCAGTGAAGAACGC" 0.438

Answer with reported PBM binding z-score of "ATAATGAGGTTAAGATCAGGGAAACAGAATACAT" 2.15

Give me measured PBM binding z-score, please, for this sequence: "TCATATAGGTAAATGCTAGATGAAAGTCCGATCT" 0.68

Determine its reported PBM binding z-score: "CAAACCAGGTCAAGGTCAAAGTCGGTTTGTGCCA" 5.17

Using the record for "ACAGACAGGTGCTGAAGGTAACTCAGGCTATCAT" , state its measured PBM binding z-score. -0.677

Please supply the value of reported PBM binding z-score for the item "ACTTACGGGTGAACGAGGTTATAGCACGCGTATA" 1.21

Please supply the value of reported PBM binding z-score for the item "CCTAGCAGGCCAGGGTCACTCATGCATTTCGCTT" 1.72

Look up PBM binding z-score of "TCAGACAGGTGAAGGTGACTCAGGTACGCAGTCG" and report it. 0.864

----------
# Tested on: PPARg DBDmut IVT, anti-PPARg (DBD mutation: PPARg1 K132A/R137A, NR concentration 270 nM)
# assayProcedure: PBM binding z-score (relative to random genomic background probes); higher = stronger binding; sequences stand for … in GC…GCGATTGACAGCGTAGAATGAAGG
Where PBM binding z-score equals or exceeds 0.4, the correct label is Satisfied; where it does not, the label is Not satisfied.

[[record]]
sequencedata = "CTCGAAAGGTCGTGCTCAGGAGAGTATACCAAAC"
studysystem = "PPARg DBDmut IVT, anti-PPARg (DBD mutation: PPARg1 K132A/R137A, NR concentration 270 nM)"
grouplabel = "Not satisfied"

[[record]]
sequencedata = "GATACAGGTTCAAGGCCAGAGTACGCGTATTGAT"
studysystem = "PPARg DBDmut IVT, anti-PPARg (DBD mutation: PPARg1 K132A/R137A, NR concentration 270 nM)"
grouplabel = "Not satisfied"

[[record]]
sequencedata = "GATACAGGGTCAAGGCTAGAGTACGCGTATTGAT"
studysystem = "PPARg DBDmut IVT, anti-PPARg (DBD mutation: PPARg1 K132A/R137A, NR concentration 270 nM)"
grouplabel = "Satisfied"

[[record]]
sequencedata = "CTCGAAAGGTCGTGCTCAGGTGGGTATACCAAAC"
studysystem = "PPARg DBDmut IVT, anti-PPARg (DBD mutation: PPARg1 K132A/R137A, NR concentration 270 nM)"
grouplabel = "Not satisfied"

[[record]]
sequencedata = "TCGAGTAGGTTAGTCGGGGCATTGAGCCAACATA"
studysystem = "PPARg DBDmut IVT, anti-PPARg (DBD mutation: PPARg1 K132A/R137A, NR concentration 270 nM)"
grouplabel = "Not satisfied"

[[record]]
sequencedata = "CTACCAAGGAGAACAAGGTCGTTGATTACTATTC"
studysystem = "PPARg DBDmut IVT, anti-PPARg (DBD mutation: PPARg1 K132A/R137A, NR concentration 270 nM)"
grouplabel = "Not satisfied"

[[record]]
sequencedata = "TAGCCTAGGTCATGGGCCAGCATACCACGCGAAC"
studysystem = "PPARg DBDmut IVT, anti-PPARg (DBD mutation: PPARg1 K132A/R137A, NR concentration 270 nM)"
grouplabel = "Not satisfied"

[[record]]
sequencedata = "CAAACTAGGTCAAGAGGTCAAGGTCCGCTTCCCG"
studysystem = "PPARg DBDmut IVT, anti-PPARg (DBD mutation: PPARg1 K132A/R137A, NR concentration 270 nM)"
grouplabel = "Not satisfied"


Please find the next sequence below.
Form field: PBM binding z-score at least 0.4? Entry: "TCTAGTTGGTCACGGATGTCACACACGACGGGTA" Satisfied
